Test system: U251 CNS
measurement_notes: NCI tumour cell line growth inhibition, 48 h
Each record here notes measured TGI.

COc1ccc(NC(C)=O)cc1N1C(=O)/C(=C\c2cc(OC)c(OC)c(OC)c2)S(=O)(=O)C1c1ccccc1 (centres undefined) ... > 100 µM
Cc1cc(C)n(-c2c(O)ccc(O)c2-n2nc(C)cc2C)n1 ... > 100 µM
COc1c(O)cc2c(c1O)C1O[C@H](CO)C(O)[C@H](O)[C@H]1OC2=O (some centres undefined) ... > 100 µM
Nc1ccc(C(=O)NN2C(=O)C(Cl)C2c2ccccc2O)cc1 (centres undefined) ... > 100 µM
C=C[C@]1(C)C=C2C(=O)[C@@]3(O)OC(=O)[C@@]4(CCCC(C)(C)[C@H]34)[C@@]2(O)CC1 ... 5.68 µM

Supply measured TGI of CC(=O)Nc1ccc(/C=C/C(=O)c2sc(C(N)=S)nc2C)cc1 in your reply.
> 100 µM

Supply measured TGI of COc1ccc(/C(Cl)=C(\C=O)c2ccc(Cl)c(Cl)c2)cc1OC in your reply.
15 µM

Supply measured TGI of CCOC(=O)C1C(c2ccc([N+](=O)[O-])cc2)NC(c2ccc([N+](=O)[O-])cc2)C(C(=O)OC)S1(=O)=O (centres undefined) in your reply.
> 100 µM

Supply measured TGI of O=S1c2ccc(Cl)cc2CC(SSC2Cc3cc(Cl)ccc3S(=O)c3ccccc32)c2ccccc21 (centres undefined) in your reply.
> 100 µM

====

Test system: SN12C renal
measurement_notes: NCI tumour cell line growth inhibition, 48 h
Each record here notes measured TGI.

Cn1cc(C2=C(c3c4n(c5ccccc35)CCC(CN)CC4)C(=O)NC2=O)c2ccccc21 (configuration not stated) ... 8.14 µM
O=Cc1ccc2c(c1)CC1(C2)Cc2ccc(C=O)cc2C1 ... 64.5 µM
O=C1c2ccccc2C(=O)c2c(O)c(O)cc(O)c21 ... > 100 µM

Supply measured TGI of C/C(=C\COP(=O)(O)OP(=O)(O)O)CC/C=C(\C)CNc1ccc([N+](=O)[O-])cc1 in your reply.
> 100 µM

Supply measured TGI of CCOC(=O)C1=C(C)N(NC(=O)c2ccccc2)C2(O)CCCC12C(=O)OCC (configuration not stated) in your reply.
> 100 µM

Supply measured TGI of O=c1[nH]c2ccsc2c(=O)n1COCc1ccccc1 in your reply.
> 100 µM

Supply measured TGI of C/C(=N/NC(=S)N1CCCC1)c1cccc(/C(C)=N\NC(=S)N2CCCC2)n1 in your reply.
5.73 µM

Supply measured TGI of O=C(NN1C(=O)c2ccccc2C1=O)c1ccccc1Nc1ccccc1C(=O)NN1C(=O)c2ccccc2C1=O in your reply.
> 100 µM

Supply measured TGI of CN1CCC/C1=C1\C(=O)c2cccn2C1=O in your reply.
> 100 µM

Supply measured TGI of Nc1nccc(Nc2ccc(S(N)(=O)=O)cc2)n1 in your reply.
> 100 µM

Supply measured TGI of O=C(Nc1ccc(Br)c(Cl)c1)c1cc(F)ccc1O in your reply.
8.91 µM

Supply measured TGI of O=c1c2c3c(sc2nc2n1N=CN(c1ccc(Cl)cc1)C2)CCCC3 in your reply.
> 100 µM

Supply measured TGI of CCCCCCCCCCCC(=O)OCC1OC(n2cc(F)c(=O)[nH]c2=O)C(N)C(O)C1O (configuration not stated) in your reply.
> 100 µM

Supply measured TGI of COc1ccc(CCN(C)C(=O)CC(C#N)(c2ccccc2)c2ccc(OC)c(OC)c2)cc1OC (configuration not stated) in your reply.
> 100 µM

Supply measured TGI of Cc1cc(C)n(-c2c(O)ccc(O)c2-n2nc(C)cc2C)n1 in your reply.
> 100 µM

Supply measured TGI of CCOC(=O)Oc1cc2c(ccn2C)c2c1c1ccccc1n2C(=O)OCC in your reply.
> 100 µM

====

Test system: SNB-19 CNS
measurement_notes: NCI tumour cell line growth inhibition, 48 h
Each record here notes measured TGI.

Answered cases to consult:
C[C@@H]1OC2(O)[C@@H]3CCCN3C(=O)N(Cc3ccccc3)N2C1=O (stereo partly specified) ... > 100 µM
O=C(/C=C/c1ccccc1)CCC1C(=O)NC(=O)NC1=O ... > 100 µM
COC(=O)c1cc(C#N)[nH]c1-c1cccs1 ... > 100 µM
NC(=O)Oc1cc(OC(N)=O)cc(N(CCCl)CCCl)c1 ... > 100 µM
COc1ccc(F)cc1C(=O)c1cnc(NC2CCN(S(C)(=O)=O)CC2)nc1N ... > 25 µM

Supply measured TGI of N#CC(C#N)=C1CCCCc2ccc([N+](=O)[O-])cc21 in your reply.
> 100 µM

Supply measured TGI of O=C1/C(=C/C(Cl)=C/c2ccccc2)SC(=S)N1CCc1ccc(O)cc1 in your reply.
2.95 µM

Supply measured TGI of CNC(=O)CN(CC(N)=O)C(=O)NC in your reply.
> 100 µM

Supply measured TGI of CCCCc1ccc(N2C(=O)c3cccnc3S2(=O)=O)cc1 in your reply.
> 100 µM

Supply measured TGI of C=C1CC(COc2ccc3ccc(=O)oc3c2)(c2ccccc2)OC1=O (stereo unspecified) in your reply.
28.5 µM

Supply measured TGI of C#C[C@@]1(O)[C@@H](CO)O[C@@H](n2cc(F)c3c(N)ncnc32)[C@@H]1O in your reply.
13.7 µM

====

Each record here notes measured GI50.
Test system: SNB-19 CNS
measurement_notes: NCI tumour cell line growth inhibition, 48 h

CCOC(=O)c1c(Cl)c2c(n1Cc1cc(OC)cc(OC)c1)-c1oncc1CCC2 ... 0.629 µM
Cn1cc(C2=C(c3c4n(c5ccccc35)CCC(CN)CC4)C(=O)NC2=O)c2ccccc21 (centres undefined) ... 4.52 µM
Cc1cccc(N=C2c3cc([N+](=O)[O-])ccc3-c3c2cc([N+](=O)[O-])cc3[N+](=O)[O-])c1 ... 14.3 µM

Supply measured GI50 of CC/C(=C(\CC)c1ccc(OCCN(CC)CC)cc1)c1ccc(OCCN(CC)CC)cc1 in your reply.
3.26 µM

Supply measured GI50 of COc1cnc2c(c1)C(=O)c1c-2n(CCCN2CCN(C)CC2)c(=O)c2cc(Cl)ccc12 in your reply.
13.8 µM

Supply measured GI50 of O=C(Nc1ccc(Br)c(Cl)c1)c1cc(F)ccc1O in your reply.
0.729 µM

Supply measured GI50 of COc1cc2c(cc1OC)[C@@]1(C)C(=O)c3cc4c(cc3[C@H]1N(C)C2=O)OCO4 in your reply.
> 100 µM

Supply measured GI50 of COc1ccc(F)cc1C(=O)c1cnc(NC2CCN(S(C)(=O)=O)CC2)nc1N in your reply.
1.8 µM

Supply measured GI50 of Cc1ccc(NC(=O)c2ccnc(N3CCCC3)c2)cc1-c1ccc(C(=O)NCC2CC2)cc1 in your reply.
> 25 µM

====

System: LXFL 529 NSCLC
measurement_notes: NCI tumour cell line growth inhibition, 48 h
outcome_measure: TGI (µM)
Kindly provide the numeric value in µM only, without the unit symbol.

CCN(CC)c1ccc2c(c1)N=C1N=CC=CN1C2(c1ccc(N(C)C)cc1)c1ccc(N(C)C)cc1 ... 12.3

// moving on: another record for TGI
Supply measured TGI of COC(=O)C1=CC2OC13CC1CCC3(C2=O)C1(C)C (stereo not given) in your reply.
16.7

====

Each record here notes measured TGI.
Tested on: M14 melanoma
measurement_notes: NCI tumour cell line growth inhibition, 48 h
Kindly provide the numeric value in µM only, without the unit symbol.

Answered cases to consult:
CCCC(=O)NNc1[nH]c(-c2ccc(OC)cc2)cc1C(=O)OCC ... 39.7
CC1OC(O)CC(OC(=O)c2ccccc2)C1OC(=O)c1ccccc1 (configuration not stated) ... 30.3
O=C(CC1(O)C(=O)Nc2c(Cl)cc(Cl)cc21)c1ccc2ccccc2c1 (configuration not stated) ... 16.6
Cn1cnc2c(NCc3ccccc3)nc(NCCO)nc21 ... 120

// moving on: another record for TGI
Please tell me the measured TGI for CC(=O)OCC1OC(S[As](C)C)C(OC(C)=O)C1OC(C)=O (configuration not stated) ; system: M14 melanoma.
0.726

====

Test system: OVCAR-5 ovarian
measurement_notes: NCI tumour cell line growth inhibition, 48 h
Each record here notes measured TGI.

Answered cases to consult:
Nc1nc(N)c(-c2ccc(Cl)cc2)c(CCC(=O)Nc2cccc(C(F)(F)F)c2)n1 ... > 100 µM
O=C(O)C(Br)Cc1ccc2c(c1)OCO2 (configuration not stated) ... > 100 µM
O=C(O)CC1(C(=O)O)CCCCC1 ... > 100 µM

Please tell me the measured TGI for COc1ccc2c(c1)[n+]([O-])c(-c1nc3ccccc3s1)c(N)[n+]2[O-] ; system: OVCAR-5 ovarian.
> 100 µM

Please tell me the measured TGI for COc1ccc(-n2cnc3c(NC(C)(C)C(=O)O)ncnc32)cc1 ; system: OVCAR-5 ovarian.
> 100 µM

Please tell me the measured TGI for O=C(/C=C/c1cccs1)c1ccc(C(=O)/C=C/c2cccs2)cc1 ; system: OVCAR-5 ovarian.
> 100 µM

Please tell me the measured TGI for CC/C(=C(\CC)c1ccc(OCCN(CC)CC)cc1)c1ccc(OCCN(CC)CC)cc1 ; system: OVCAR-5 ovarian.
17.7 µM

Please tell me the measured TGI for CCO/C(O)=C(/C(=N)N1CCCC1)C(=O)Nc1ccc(Cl)cc1 ; system: OVCAR-5 ovarian.
> 100 µM

Please tell me the measured TGI for COC(=O)[C@@H](C)C[C@H](Cc1ccccc1)NC(=O)c1csc([C@@H](C[C@H](C(C)C)N(C)C(=O)[C@@H](NC(=O)[C@H]2CCCCN2C)C(C)C)OC(C)=O)n1 ; system: OVCAR-5 ovarian.
> 25 µM

Please tell me the measured TGI for COc1ccc(NC(C)=O)cc1N1C(=O)/C(=C\c2cc(OC)c(OC)c(OC)c2)S(=O)(=O)C1c1ccccc1 (configuration not stated) ; system: OVCAR-5 ovarian.
> 100 µM

Please tell me the measured TGI for NC(=O)NC(=O)c1ccc(NC(=O)CBr)cc1 ; system: OVCAR-5 ovarian.
7.34 µM

Please tell me the measured TGI for COc1ccc(-c2cc(-c3ccco3)c(C#N)c(=S)n2C2OC(CO)C(O)C(O)C2O)cc1 (configuration not stated) ; system: OVCAR-5 ovarian.
> 100 µM

Please tell me the measured TGI for COC1/C=C\OC2(C)Oc3c(C)c(O)c4c(O)c(c(CN(C)C)c(O)c4c3C2=O)NC(=O)/C(C)=C\C=C/C(C)C(O)C(C)C(O)C(C)C(OC(C)=O)C1C (configuration not stated) ; system: OVCAR-5 ovarian.
> 100 µM

Please tell me the measured TGI for COc1cc(CCCC(O)COc2cccc3c2C2(O)CCCCCC32)cc(OC)c1 (configuration not stated) ; system: OVCAR-5 ovarian.
31.5 µM

Please tell me the measured TGI for COC(=O)c1cc(C#N)[nH]c1-c1cccs1 ; system: OVCAR-5 ovarian.
> 100 µM

Please tell me the measured TGI for CO[C@H]1CC[C@@]2(C)C(=CC[C@H]3[C@@H]4C[C@H](O)C[C@@]4(C)CC[C@@H]32)C1 ; system: OVCAR-5 ovarian.
44.1 µM

Please tell me the measured TGI for CC(C)C(Cl)CC/C(CBr)=C(\Cl)CCl (configuration not stated) ; system: OVCAR-5 ovarian.
31.2 µM

Please tell me the measured TGI for O=C1OC2(c3ccc(O)cc3Oc3cc(O)ccc32)c2c1c(-c1ccccc1)c(-c1ccccc1)c(-c1ccccc1)c2-c1ccccc1 ; system: OVCAR-5 ovarian.
49.3 µM
